# Target Entity: Cytochrome P450 2C19 (Homo sapiens)
# Assay Notes: Cytochrome panel assay with activity outcomes
# Stated Conditions: recombinant CYP, pro-luciferin dealkylation, luminescence, p450-cyp2c19; series mostly up to 57.1 µM
# Description: The P450 gene superfamily is involved in the metabolism and clearance of xenobiotics. This assay used various human CYP P450 isozymes to measure the dealkylation of various pro-luciferin substrates to luciferin. The luciferin is then measured by luminescence after the addition of a luciferase detection reagent. […] Inhibitors and some substrates limit the production of luciferin, and decrease measured luminescence. […] 8, Detection, 1 sec, ViewLux luminescent read […]
Out of some 16,000 compounds screened, about 5,800 (36%) were called active. Roughly 23% stayed inconclusive and do not appear here. Calls come from the whole dose curve; as a rule, active = well fitted curve in the direction sought with a large enough effect; inconclusive = small, poorly fitted or top-dose-only effect, or effect the other way; inactive = no such curve, though single readings can be large or run the other way. This is one part of the list.
The categories you may choose from are Yes = active, No = inactive

Record excerpt, results attached:
>  <Molecule>
Clc1ccccc1-c1nc(-c2ccncc2)no1

>  <Category>
Yes

$$$$
>  <Molecule>
Cc1nc2cnc(N3CCN(C)CC3)nc2n(Cc2cccs2)c1=O

>  <Category>
No

$$$$
>  <Molecule>
C/C(=N\NC(=O)CSCc1ccc(Cl)cc1)c1ccc2c(c1)OCCO2

>  <Category>
Yes

$$$$

Per the records of this test, what outcome belongs to Cc1c(Cl)cnc(NC(=O)COC(=O)CCS(=O)(=O)c2ccccc2)c1Cl ?
Yes

Hi, do you know how CS(=O)(=O)c1ccccc1-c1nc(-c2cc(C(F)(F)F)cc(C(F)(F)F)c2)no1 came out in this test?
No

Recorded call for CCC(C)(C)n1nnnc1C(C(C)C)N(Cc1ccco1)Cc1cc2cc3c(cc2[nH]c1=O)OCO3 (stereo not drawn) ?
Yes

// outcome(item) with item = C[C@@H](C(=O)Nc1ccc2ccccc2c1)[C@@H]1C[C@@]1(C)[C@@H](NC(=O)c1cnccn1)c1ccccc1
No

Answer briefly: the call reported for CC(C)COc1ccc(C(=O)Nc2scc(-c3ccc(Cl)cc3Cl)c2C(N)=O)cc1 in this assay.
Yes

###

# Target Entity: Cytochrome P450 2C19 (Homo sapiens) (UniProt P33261)
# Sequence (P33261 whole entry, looked up): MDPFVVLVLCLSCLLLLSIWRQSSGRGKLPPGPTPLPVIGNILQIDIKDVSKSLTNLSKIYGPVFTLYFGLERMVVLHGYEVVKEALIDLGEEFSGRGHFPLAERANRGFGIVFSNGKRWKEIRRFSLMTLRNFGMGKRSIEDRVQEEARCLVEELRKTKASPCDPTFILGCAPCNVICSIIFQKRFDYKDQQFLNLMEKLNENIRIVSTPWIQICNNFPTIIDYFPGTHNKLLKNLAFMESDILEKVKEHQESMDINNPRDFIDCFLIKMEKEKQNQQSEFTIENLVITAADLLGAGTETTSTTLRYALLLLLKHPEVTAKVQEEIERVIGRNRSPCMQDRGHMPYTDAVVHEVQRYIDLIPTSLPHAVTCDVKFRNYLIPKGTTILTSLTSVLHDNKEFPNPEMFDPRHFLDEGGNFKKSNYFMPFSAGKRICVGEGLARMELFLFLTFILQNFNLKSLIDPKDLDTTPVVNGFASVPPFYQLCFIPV
# Assay Notes: Cytochrome panel assay with activity outcomes
# Stated Conditions: recombinant CYP, pro-luciferin dealkylation, luminescence, p450-cyp2c19; series mostly up to 57.1 µM
Hit rate of the full screen: of about 16,000 compounds, about 5,800 (36%) were called active. Roughly 23% stayed inconclusive and do not appear here. Calls follow the shape of the dose curve; as a rule, active = well fitted curve in the direction sought with a large enough effect; inconclusive = small, poorly fitted or top-dose-only effect, or effect the other way; inactive = no such curve, though single readings can be large or run the other way. The list shows a part of the results.
The reply should name one outcome from 1 for active, 0 for inactive

>  <Compound>
Cc1noc(C)c1-c1nccc(N2CCN(C)CC2)n1

>  <Category>
0

$$$$
>  <Compound>
O=C(CSc1ccccc1C(=O)O)NCc1ccco1

>  <Category>
0

$$$$
>  <Compound>
CN(Cc1ccccc1)Cn1ccnc1

>  <Category>
1

$$$$
>  <Compound>
CCOC(=O)C1CCCN(C(=O)CCCOc2cc(=O)n(C)c3ccccc23)C1 (centres undefined)

>  <Category>
1

$$$$
>  <Compound>
COCc1nc2c([nH]1)c(=O)n(C)c(=O)n2CC(C)C

>  <Category>
0

$$$$
>  <Compound>
COCCn1c(Cc2ccccc2)nnc1SCc1nc2ccccc2c(=O)[nH]1

>  <Category>
0

$$$$
>  <Compound>
CN(C)CC(O)COc1ccc(C(C)(C)c2ccc(OCC(O)CN(C)C)cc2)cc1 (centres undefined)

>  <Category>
0

$$$$
>  <Compound>
O=C(CCN1CCN(CC(=O)Nc2ccccc2Cl)CC1)Nc1ccccc1F

>  <Category>
1

$$$$

Each compound tested received a call. Report the one for O=C(CCCN1C(=O)C2C3C=CC(C3)C2C1=O)N1CCN(c2ccccc2)CC1 (centres undefined) .
0

Fill in: this test's call for CNc1oc(-c2cccs2)nc1C#N is ___
0

Hi team, can someone confirm the assay call for Cc1ccccc1-c1nc(N2CCN(C)CC2)c2ccccc2n1 ?
0

Which outcome was assigned to OCCN1CCN(CC/C=C2\c3ccccc3Sc3ccc(C(F)(F)F)cc32)CC1 in this test?
0

Which outcome was entered for the compound O=C(CCC(=O)c1cccs1)OCC(=O)N1CCN(C(=O)c2ccco2)CC1 in this test?
0

Record lookup: outcome of this test for Cc1ccccc1CS(=O)(=O)Cc1ccc(C(=O)NCc2cccnc2)o1 ?
1

Hello, I am checking results. What call was entered for CCOC(=O)CSc1nc2ccccc2c(=O)n1CC1CCC(C(=O)NCc2ccco2)CC1 (centres undefined) ?
1

Kindly provide the recorded test outcome for the following compound: O=C(Nc1cccn(Cc2c(Cl)cccc2Cl)c1=O)c1ccc(Cl)cc1Cl
1

Record request — test call for C#CCN(C)Cc1ccccc1
0

Test call for this compound, please: COCCn1c(C)cc2c(c1=O)C(c1ccccc1F)C(C#N)=C(N)O2 (centres undefined)
0

Give the logged outcome of this assay for the following compound: CC(C)Cn1c(SCc2nc3ccccc3c(=O)[nH]2)nc2ccccc2c1=O
1
